Every entry's value here was drawn from the supplement of paper PMC7806825.

# reported protein melting temperature; entries follow
# Tested on: McpC ligand-binding domain (Salmonella Typhimurium SL1344)
# procedure text: protein melting temperature (Tm) in presence of compound (degrees C); higher = more thermal stabilisation (possible ligand binding)
# study conditions: Biolog plate: PM05; compound stock concentration: 10-20 mM, 2 uL in 10 uL reaction
Reply with the value as a number alone.

The cases that follow already have their protein melting temperature on record.
>  <compound>
O=c1[nH]cnc2c1ncn2[C@@H]1O[C@H](CO)[C@@H](O)[C@H]1O [Inosine]

>  <protein melting temperature>
44.6

$$$$
>  <compound>
Cc1ncc(CO)c(CN)c1O [Pyridoxamine]

>  <protein melting temperature>
43.9

$$$$
>  <compound>
NCCC[C@H](N)C(=O)O [L-Ornithine]

>  <protein melting temperature>
44.7

$$$$
>  <compound>
Nc1ccc(C(=O)O)cc1 [p-Amino-Benzoic acid]

>  <protein melting temperature>
43.7

$$$$
>  <compound>
NC(=O)NCCC[C@H](N)C(=O)O [L-Citrulline]

>  <protein melting temperature>
43.8

$$$$

// returns reported protein melting temperature for input O=C(O)[C@@H]1C[C@@H](O)CN1 [Hydroxy-L-Proline]
43.8

// returns reported protein melting temperature for input Cc1cc2nc3c(=O)[nH]c(=O)nc-3n(C[C@H](O)[C@H](O)[C@H](O)CO)c2cc1C [Riboflavin]
43.6

// returns reported protein melting temperature for input Cc1ncc(CO)c(C=O)c1O [Pyridoxal]
43.2

// returns reported protein melting temperature for input Cc1c[nH]c(=O)[nH]c1=O [Thymine]
43

----------
# System: McpC ligand-binding domain (Salmonella Typhimurium SL1344)
# procedure text: protein melting temperature (Tm) in presence of compound (degrees C); higher = more thermal stabilisation (possible ligand binding)
# study conditions: Biolog plate: PM01; compound stock concentration: 10-20 mM, 2 uL in 10 uL reaction
# reported protein melting temperature; entries follow

The cases that follow already have their protein melting temperature on record.
>  <compound>
OCC(O)C(O)C(O)CO (stereo not given) [Adonitol]

>  <tgt>
McpC ligand-binding domain (Salmonella Typhimurium SL1344)

>  <protein melting temperature>
44.8

$$$$
>  <compound>
O=C(O)CC(O)C(=O)O (racemic) [DL-Malic acid]

>  <tgt>
McpC ligand-binding domain (Salmonella Typhimurium SL1344)

>  <protein melting temperature>
44.5

$$$$
>  <compound>
O=C[C@H](O)[C@H](O)[C@@H](O)CO [L-Lyxose]

>  <tgt>
McpC ligand-binding domain (Salmonella Typhimurium SL1344)

>  <protein melting temperature>
44.7

$$$$
>  <compound>
CC(=O)N[C@@H]1C(O)O[C@H](CO)[C@@H](O)[C@@H]1O (stereo partly drawn) [N-Acetyl-D-Mannosamine]

>  <tgt>
McpC ligand-binding domain (Salmonella Typhimurium SL1344)

>  <protein melting temperature>
44.8

$$$$

Consider the additional compound presented here.
Which protein melting temperature is reported with McpC ligand-binding domain (Salmonella Typhimurium SL1344) for this entry: O=C[C@H](O)[C@@H](O)[C@H](O)[C@H](O)COP(=O)(O)O [D-Glucose-6-Phosphate] ?
44.6

----------
# Test system: McpC ligand-binding domain (Salmonella Typhimurium SL1344)
# procedure text: protein melting temperature (Tm) in presence of compound (degrees C); higher = more thermal stabilisation (possible ligand binding)
# study conditions: Biolog plate: PM03B; compound stock concentration: 10-20 mM, 2 uL in 10 uL reaction
endpoint label: protein melting temperature
Reply with the value as a number alone.

The cases that follow already have their protein melting temperature on record.
>  <molecule>
O=C(O)[C@@H]1CCCN1

>  <protein melting temperature>
45.1

$$$$
>  <molecule>
O=c1[nH]c(=O)c2nc[nH]c2[nH]1

>  <protein melting temperature>
44.5

$$$$
>  <molecule>
NC(=O)NC(N)=O

>  <protein melting temperature>
44.2

$$$$
>  <molecule>
CC(C)[C@H](N)C(=O)O

>  <protein melting temperature>
45

$$$$
>  <molecule>
NC(N)=O

>  <protein melting temperature>
46.5

$$$$
>  <molecule>
NC(=O)C[C@@H](N)C(=O)O

>  <protein melting temperature>
44.8

$$$$
>  <molecule>
CCC(N)C(=O)O (racemic)

>  <protein melting temperature>
44.3

$$$$
>  <molecule>
CC(=O)N[C@@H]1C(O)O[C@H](CO)[C@@H](O)[C@@H]1O (some centres undefined)

>  <protein melting temperature>
45.5

$$$$

// returns reported protein melting temperature for input NCCCCN
44

// returns reported protein melting temperature for input O=c1cc[nH]c(=O)[nH]1
45.7

// returns reported protein melting temperature for input CCCCCN
44.9

// returns reported protein melting temperature for input NC(=O)NCCC[C@H](N)C(=O)O
44.8

// returns reported protein melting temperature for input N[C@@H](CC(=O)O)C(=O)O
45.4

// returns reported protein melting temperature for input C[C@H](N)C(=O)N[C@@H](Cc1cnc[nH]1)C(=O)O
45.3

// returns reported protein melting temperature for input Cc1cn([C@H]2C[C@H](O)[C@@H](CO)O2)c(=O)[nH]c1=O
45.1

// returns reported protein melting temperature for input N[C@@H](Cc1c[nH]c2ccccc12)C(=O)O
44.4

// returns reported protein melting temperature for input N[C@H](CCC(=O)O)C(=O)O
45

// returns reported protein melting temperature for input N[C@@H](CCC(=O)O)C(=O)O
44.8

// returns reported protein melting temperature for input C[C@H](N)C(=O)N[C@H](C(=O)O)[C@@H](C)O
45.1

// returns reported protein melting temperature for input CC[C@H](C)[C@H](N)C(=O)O
44.8

// returns reported protein melting temperature for input Nc1[nH]cnc2ncnc1-2
45.2

// returns reported protein melting temperature for input O=[N+]([O-])O [Nitrate]
46

// returns reported protein melting temperature for input O=C1NC(=O)C(=O)C(=O)N1
44.3

// returns reported protein melting temperature for input CC(O)C(N)=O (racemic) [DL-Lactamide]
45.6
